target: Neutrophil collagenase (Homo sapiens); experiment: Inhibition of human neutrophil collagenase [Matrix Metalloprotease-8, MMP-8]
Sequence (P22894 whole entry): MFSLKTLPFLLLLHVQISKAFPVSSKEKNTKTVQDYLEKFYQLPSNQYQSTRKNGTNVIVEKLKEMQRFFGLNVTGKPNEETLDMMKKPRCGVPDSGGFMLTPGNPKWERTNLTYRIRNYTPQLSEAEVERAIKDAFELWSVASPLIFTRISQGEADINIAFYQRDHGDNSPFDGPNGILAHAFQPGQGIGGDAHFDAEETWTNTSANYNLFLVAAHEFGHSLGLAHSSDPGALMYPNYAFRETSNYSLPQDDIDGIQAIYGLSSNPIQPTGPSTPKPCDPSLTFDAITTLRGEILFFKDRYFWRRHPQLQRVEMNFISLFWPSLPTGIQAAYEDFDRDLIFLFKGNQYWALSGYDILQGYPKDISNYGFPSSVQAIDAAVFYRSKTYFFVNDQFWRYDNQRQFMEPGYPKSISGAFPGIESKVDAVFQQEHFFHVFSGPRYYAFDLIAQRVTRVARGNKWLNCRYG
measurement name: IC50 (nM)
API: value field is a number in nM; no unit string.

| chemical string | unit info | IC50 |
| --- | --- | --- |
| O=C(O)C(=O)[C@H]1Cc2ccccc2CN1S(=O)(=O)c1ccc(-c2ccc(Cl)cc2)cc1 | nM | 5 |
| O=C(NO)[C@H]1Cc2ccccc2CN1S(=O)(=O)Cc1ccc(-c2ccccn2)s1 | nM | 2 |
| COc1ccc(S(=O)(=O)N2Cc3ncn(C)c3C[C@@H]2C(=O)O)cc1 | nM | 10000 |
| COc1ccc(S(=O)(=O)N2Cc3ncn(C)c3C[C@@H]2C(=O)NO)cc1 | nM | 3 |
| CC(C)(C)OC(=O)Nc1ccc2c(c1)CN(S(=O)(=O)c1ccc(-c3ccc(F)cc3)cc1)[C@@H](C(=O)NO)C2 | nM | 10 |
| COc1ccc(S(=O)(=O)N2Cc3cc(NC(=O)[C@H](C)N)ccc3C[C@H]2C(=O)C(=O)O)cc1 | nM | 2000 |
| O=C(O)C(=O)[C@H]1Cc2ccccc2CN1S(=O)(=O)c1ccc(-c2nc3ccccc3o2)cc1 | nM | 80 |
| CCCCCCCCCCCCCCCCS(=O)(=O)N1Cc2ccccc2C[C@@H]1C(=O)NO | nM | 3000 |

Now let's try a different one.
# IC50 lookup, item CC(=O)Nc1ccc(S(=O)(=O)N2Cc3ccccc3C[C@@H]2C(=O)NO)cc1
100

Just for reference, ChEMBL document CHEMBL1132223 is where these values come from.
